For each record, write down the corresponding Cells PE-A Mean.
# target-or-system: T1, human PD-L1 (hPD-L1) expressed on transfected 300.19 cells (human, UniProt Q9NZQ7 19-290)
# T1 construct: whole, on cells; also called B7H1
# T1 sequence (Q9NZQ7 19-290): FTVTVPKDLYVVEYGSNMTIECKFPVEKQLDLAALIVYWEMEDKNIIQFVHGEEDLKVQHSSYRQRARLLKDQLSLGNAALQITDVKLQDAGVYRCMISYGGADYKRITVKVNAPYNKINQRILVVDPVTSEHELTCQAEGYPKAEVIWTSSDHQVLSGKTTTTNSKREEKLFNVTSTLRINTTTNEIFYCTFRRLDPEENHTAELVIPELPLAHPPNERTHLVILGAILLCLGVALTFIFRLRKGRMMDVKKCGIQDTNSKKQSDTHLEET
# assay-details: FACS, hPD-L1 300.19 cells, assay 2, Ab approx 10 ug/ml
Give bare numbers, in MFI.

INSERT INTO assay_data (binder, measurement_kind, unit_descriptor, test_result) VALUES
  ('Ab-14 (antibody, V domains shown, also called huPD-L1 Ab # 14) VH: QVQLVQSGAEVKKPGASVKVSCKASGYTFTSYGISWVRQAPGQGLEWMGWISAYNGNTNYAQKLQGRVTMTTDTSTSTAYMELRSLRSDDTAVYYCARALPSGTILVGGWFDPWGQGTLVTVSS VL: NFMLTQPHSVSESPGKTVTISCTRSSGNIASNYVQWYQQRPGSAPTTVIYEDNQRPSGVPDRFSGSIDSSSNSASLTISGLKTEDEADYYCQSYDSSNLWVFGGGTKLTVL', 'Cells PE-A Mean', 'MFI', 77900);

Exercise: Name the recorded Cells PE-A Mean of the binder listed here: Ab-55 (antibody, V domains shown, also called huPD-L1 Ab # 55) VH: QVQLVQSGAEVKKPGASVKVSCKASGYTFTSYGISWVRQAPGQGLEWMGWTSPHNGLTAFAQILEGRVTMTTDTSTNTAYMELRNLTFDDTAVYFCAKVHPVFSYALDVWGQGTLVTVSS VL: NFMLTQPHSVSESPGKTVTISCTRSSGSIASNYVQWYQQRPGSSPTTVIYEDNQRPSGVPDRFSGSIDTSSNSASLTISGLKTKDEADYYCQSYDGITVIFGGGTKLTVL
Key: 42400
